B1: ZER1 (parent)
chain: PILRLLPQGISPVSQHWATWALYN

Variants of: B1
Test: protein stability index of a GFP-peptide fusion (GPS, HEK-293T) (PSI 1-6); higher = more stable;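 further: lentivirally expressed fusions sorted by FACS into six bins by GFP to DsRed ratio, PSI derived from sequencing read proportions per bin multiplied by bin number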
Details: c terminus: a fixed tail appended
Measure: protein stability index
Answers are plain numbers.

Sequence change: G9K
protein stability index: 3.57
//
Sequence change: T19D
protein stability index: 2.33
//
Sequence change: P12N
protein stability index: 1.85
//
Sequence change: W20F
protein stability index: 3.5
//
Sequence change: I2D
protein stability index: 2.52
//
Sequence change: H16N
protein stability index: 2.34
//
Sequence change: Q15N
protein stability index: 2.99
//
Sequence change: L5D
protein stability index: 2.04
//
Sequence change: N24H
protein stability index: 2.93
//
Sequence change: W20H
protein stability index: 2.61

Batch lookup, protein stability index per entry.
1. S11H
2. S11R
3. Q15E
4. I2K
5. A18E
6. G9H
7. G9F

Key:
1: 2.03; 2: 3.06; 3: 2.19; 4: 2.04; 5: 2.82; 6: 5.34; 7: 2.78

Please give protein stability index, item by item, for the list that follows.
1. L6F
2. I2P
3. L5K
4. H16P
5. A21V

Key:
3.51
3.08
1.25
1.45
3.96
